Quick list: CLint scaled per entry.
# assay.details: Metabolic stability in rat liver microsomes assessed as intrinsic clearance in liver at 10 mM measured up to 60 mins in presence of NADPH by LC-MS/MS analysis
# Type: ADME, Microsome
# condition.context: read-out: CLH

1) COc1ccc([C@H]2[C@H](CF)C(=O)N2c2cc(OC)c(OC)c(OC)c2)cc1OCc1ccc(O[C@@H]2O[C@H](C(=O)O)[C@@H](O)[C@H](O)[C@H]2O)cc1
< 38 mL/min/kg

Please find the next compound below.
### Prompt Any idea what its CLint scaled is? The compound is COc1ccc([C@H]2[C@H](CO)C(=O)N2c2cc(OC)c(OC)c(OC)c2)cc1OCc1ccc(O[C@@H]2O[C@H](C(=O)O)[C@@H](O)[C@H](O)[C@H]2O)cc1
### Response < 38 mL/min/kg

---

# assay.details: Acute toxicity in BALB/c mouse assessed as animal survival at 12.5 mg/kg, iv administered as single dose measured after 14 days
# Format: organism-based
# condition.context: in vivo, time 14 day
metric: survival at 336 h (%)
Enter your answer as a number in %; do not include the unit.

### Prompt Any idea what its survival at 336 h is? The compound is COc1ccc([C@H]2[C@H](CO)C(=O)N2c2cc(OC)c(OC)c(OC)c2)cc1O (racemic)
### Response 100

---

# assay.details: Metabolic stability in rat liver microsomes assessed as half life at 10 mM measured up to 60 mins in presence of NADPH by LC-MS/MS analysis
# Assay type: ADME, Microsome
metric: half-life

1. COc1ccc([C@H]2[C@H](CO)C(=O)N2c2cc(OC)c(OC)c(OC)c2)cc1OCc1ccc(O[C@@H]2O[C@H](C(=O)O)[C@@H](O)[C@H](O)[C@H]2O)cc1
> 2.42 h

Please find the next molecule below.
### Prompt Any idea what its half-life is? The molecule is COc1ccc([C@H]2[C@H](CF)C(=O)N2c2cc(OC)c(OC)c(OC)c2)cc1OCc1ccc(O[C@@H]2O[C@H](C(=O)O)[C@@H](O)[C@H](O)[C@H]2O)cc1
### Response > 2.42 h

---

# assay.details: Aqueous solubility of compound in PBS at pH 7.4 at 1 mg incubated for 10 mins by HPLC analysis
# Type: physicochemical
metric: solubility at 10 min

1) COc1ccc([C@H]2[C@H](CO)C(=O)N2c2cc(OC)c(OC)c(OC)c2)cc1OCc1ccc(O[C@@H]2O[C@H](C(=O)O)[C@@H](O)[C@H](O)[C@H]2O)cc1
> 40 mg/mL

### Prompt Any idea what its solubility at 10 min is? The compound is COc1ccc([C@H]2[C@H](CF)C(=O)N2c2cc(OC)c(OC)c(OC)c2)cc1OCc1ccc(O[C@@H]2O[C@H](C(=O)O)[C@@H](O)[C@H](O)[C@H]2O)cc1
### Response > 40 mg/mL

---

# assay.details: Acute toxicity in BALB/c mouse assessed as animal survival at 100 mg/kg, iv administered as single dose measured after 14 days
# Format: organism-based
# condition.context: in vivo, time 14 day
metric: survival at 336 h (%)
Enter your answer as a number in %; do not include the unit.

### Prompt Any idea what its survival at 336 h is? The compound is COc1ccc([C@H]2[C@H](CO)C(=O)N2c2cc(OC)c(OC)c(OC)c2)cc1O (racemic)
### Response 0

---

# assay.details: Acute toxicity in BALB/c mouse assessed as lethal dose administered intravenously as single dose and measured after 14 days
# condition.context: in vivo, route iv, time 14 day
metric: LD50 at 336 h (mg/kg)
Enter your answer as a number in mg/kg; do not include the unit.

### Prompt Any idea what its LD50 at 336 h is? The compound is COc1ccc([C@H]2[C@H](CO)C(=O)N2c2cc(OC)c(OC)c(OC)c2)cc1O (racemic)
### Response 65

---

# assay.details: Acute toxicity in BALB/c mouse assessed as animal survival at 25 mg/kg, iv administered as single dose measured after 14 days
# Format: organism-based
# condition.context: in vivo, time 14 day
metric: survival at 336 h

### Prompt Any idea what its survival at 336 h is? The compound is COc1ccc([C@H]2[C@H](CO)C(=O)N2c2cc(OC)c(OC)c(OC)c2)cc1O (racemic)
### Response 100%

---

# assay.details: Acute toxicity in BALB/c mouse assessed as animal survival at 50 mg/kg, iv administered as single dose measured after 14 days
# Format: organism-based
# condition.context: in vivo, time 14 day
metric: survival at 336 h (%)
Enter your answer as a number in %; do not include the unit.

### Prompt Any idea what its survival at 336 h is? The compound is COc1ccc([C@H]2[C@H](CO)C(=O)N2c2cc(OC)c(OC)c(OC)c2)cc1O (racemic)
### Response 87.5

---

# assay.details: Chemical stability of compound at pH 7.4 in bovine serum at 1 mg incubated for 48 hrs by HPLC analysis
# Assay type: ADME, cell-free
# condition.context: cattle, pH 7.4, 48 h
metric: Stability

1. COc1ccc([C@H]2[C@H](CF)C(=O)N2c2cc(OC)c(OC)c(OC)c2)cc1OCc1ccc(O[C@@H]2O[C@H](C(=O)O)[C@@H](O)[C@H](O)[C@H]2O)cc1
Stable
2. COc1ccc([C@H]2[C@H](CO)C(=O)N2c2cc(OC)c(OC)c(OC)c2)cc1OCc1ccc(O[C@@H]2O[C@H](C(=O)O)[C@@H](O)[C@H](O)[C@H]2O)c([N+](=O)[O-])c1
Stable
3. COc1ccc([C@H]2[C@H](CO)C(=O)N2c2cc(OC)c(OC)c(OC)c2)cc1OCc1ccc(O[C@@H]2O[C@H](C(=O)O)[C@@H](O)[C@H](O)[C@H]2O)cc1
Stable
4. COc1cc(C(=O)c2c(N)oc3c(OCc4ccc(O[C@@H]5O[C@H](C(=O)O)[C@@H](O)[C@H](O)[C@H]5O)cc4)c(OC)ccc23)cc(OC)c1OC
Stable

---

# assay.details: Metabolic stability in rat liver microsomes assessed as intrinsic clearance in microsomes at 10 mM measured up to 60 mins in presence of NADPH by LC-MS/MS analysis
# Assay type: ADME, Microsome
# condition.context: read-out: CLH
Quick list: microsomal CLint per entry.

1) COc1ccc([C@H]2[C@H](CF)C(=O)N2c2cc(OC)c(OC)c(OC)c2)cc1OCc1ccc(O[C@@H]2O[C@H](C(=O)O)[C@@H](O)[C@H](O)[C@H]2O)cc1
< 9.6 µL/min/mg

### Prompt Any idea what its microsomal CLint is? The molecule is COc1ccc([C@H]2[C@H](CO)C(=O)N2c2cc(OC)c(OC)c(OC)c2)cc1OCc1ccc(O[C@@H]2O[C@H](C(=O)O)[C@@H](O)[C@H](O)[C@H]2O)cc1
### Response < 9.6 µL/min/mg

---

Quick list: IC50 per entry.
# Test system: SK-OV-3
# assay.details: Antiproliferative activity against human SK-OV-3 cells assessed as inhibition of cell growth incubated for 48 hrs in presence of beta-glucuronidase by MTT assay
# Type: functional, cell-based
# condition.context: SK-OV-3, 48 h

1. COc1ccc([C@H]2[C@H](CF)C(=O)N2c2cc(OC)c(OC)c(OC)c2)cc1OCc1ccc(O[C@@H]2O[C@H](C(=O)O)[C@@H](O)[C@H](O)[C@H]2O)cc1
22.6 nM

Please find the next molecule below.
### Prompt Any idea what its IC50 is? The molecule is COc1ccc([C@H]2[C@H](CO)C(=O)N2c2cc(OC)c(OC)c(OC)c2)cc1OCc1ccc(O[C@@H]2O[C@H](C(=O)O)[C@@H](O)[C@H](O)[C@H]2O)cc1
### Response 14.1 nM
